The entries below come with measured log10(IC50) values attached.
- Test system: HLA-A*02:03
- Experimental details: IEDB peptide-MHC binding, purified MHC/competitive/radioactivity; bounds were set here for any values at or beyond the usual limits of such assays
- Study conditions: source organism: Mammarenavirus machupoense
// do not treat as linear: log10 of IC50, unit nM

Some entries whose results are on file:
| Sequence chain | Quantitative result |
| --- | --- |
| AMPGVLSYV | 0.86 |
| ALNIALVAV | 0.65 |
| KSFFWFNEV | 2.42 |

Would you kindly share the measured log10(IC50) for LLDCIMYQS ? 3.36

Would you kindly share the measured log10(IC50) for GLSQFTHTV ? 0.89
